Kindly state inhibition at 20 µM for each of the entries shown.
Target: phosphorylated VEGF-R2Δ50 (FLVK-P) (Homo sapiens, UniProt P35968, DEL940-989/E990V)
Construct: VEGF-R2Δ50 contains residues 806-939 and 990-1171; made in house; host or cells: baculovirus/insect cells
Sequence (P35968 with tags, fused parts or gaps DEL940-989/E990V limits assumed): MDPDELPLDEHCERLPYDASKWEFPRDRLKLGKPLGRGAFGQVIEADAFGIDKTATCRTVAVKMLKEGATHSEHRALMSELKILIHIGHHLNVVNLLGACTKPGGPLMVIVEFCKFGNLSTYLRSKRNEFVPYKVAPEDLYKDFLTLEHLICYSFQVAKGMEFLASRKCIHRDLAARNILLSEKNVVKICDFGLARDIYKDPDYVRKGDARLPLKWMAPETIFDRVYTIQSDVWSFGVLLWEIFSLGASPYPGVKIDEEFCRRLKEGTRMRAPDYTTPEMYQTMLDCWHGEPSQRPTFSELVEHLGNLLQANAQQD
Assay: VEGF-R2 coupled spectrophotometric (FLVK-P) assay
Type: biochemical
Settings: read-out: VEGF % inhibition at 20 μM, 20 μM; combinatorial library compounds
Field format: number, assumed %, no unit text.

Assign inhibition at 20 µM to the following record: COc1cc(OC)c(-c2csc(-c3sc(Nc4ccc(C(C)C)cc4)nc3N)n2)c(O)c1Cl
51

Assign inhibition at 20 µM to the following record: Nc1nc(Nc2ccc(S(N)(=O)=O)cc2)sc1-c1nc(-c2ccc[nH]2)cs1
13

Assign inhibition at 20 µM to the following record: Cc1onc(-c2ccccc2)c1-c1csc(-c2sc(Nc3ccc(N(C)C)cc3)nc2N)n1
25

Assign inhibition at 20 µM to the following record: Nc1nc(Nc2ccc(S(N)(=O)=O)cc2)sc1-c1nc(-c2ccc(C(F)(F)F)cc2)cs1
2

Assign inhibition at 20 µM to the following record: CC(C)c1ccc(Nc2nc(N)c(-c3nc(-c4cccc(Br)c4)cs3)s2)cc1
5

Assign inhibition at 20 µM to the following record: Cc1c(F)cc(-c2csc(-c3sc(Nc4ccc(C(C)C)cc4)nc3N)n2)cc1Cl
18

Assign inhibition at 20 µM to the following record: COc1cccc(-c2csc(-c3sc(Nc4ccc(N(C)C)cc4)nc3N)n2)c1
10

Assign inhibition at 20 µM to the following record: Nc1nc(Nc2ccc(S(N)(=O)=O)cc2)sc1-c1nc(-c2ccc(F)c(F)c2)cs1
38

Assign inhibition at 20 µM to the following record: Cc1cc(-c2csc(-c3sc(Nc4ccc(C(C)C)cc4)nc3N)n2)c(C)s1
50

Assign inhibition at 20 µM to the following record: CC(C)c1ccc(Nc2nc(N)c(-c3nc(-c4ccc(F)c(F)c4)cs3)s2)cc1
5

Assign inhibition at 20 µM to the following record: Cc1c(-c2csc(-c3sc(Nc4ccc(C(C)C)cc4)nc3N)n2)sc2ccc(Cl)cc12 [drawing 487]
47

Assign inhibition at 20 µM to the following record: CN(C)c1ccc(Nc2nc(N)c(-c3nc(-c4cc(C(=O)C(Cl)(Cl)Cl)n(C)c4)cs3)s2)cc1
3

Assign inhibition at 20 µM to the following record: Cc1ccc(-c2csc(-c3sc(Nc4ccc(N(C)C)cc4)nc3N)n2)c(C)c1
21

Assign inhibition at 20 µM to the following record: COc1ccc(-c2csc(-c3sc(Nc4ccc(N(C)C)cc4)nc3N)n2)c(OC)c1
1

Assign inhibition at 20 µM to the following record: Cc1cc(-c2csc(-c3sc(Nc4ccc(N(C)C)cc4)nc3N)n2)ccc1Cl
2

Assign inhibition at 20 µM to the following record: CN(C)c1ccc(Nc2nc(N)c(-c3nc(-c4cccc(OC(=O)c5ccccc5)c4)cs3)s2)cc1
16

Assign inhibition at 20 µM to the following record: CN(C)c1ccc(Nc2nc(N)c(-c3nc(-c4ccccc4)cs3)s2)cc1 [drawing 547]
17

Assign inhibition at 20 µM to the following record: COc1ccc(OC)c(-c2csc(-c3sc(Nc4ccc(C(C)C)cc4)nc3N)n2)c1
12

Assign inhibition at 20 µM to the following record: CN(C)c1ccc(Nc2nc(N)c(-c3nc(-c4cc5cc(Cl)ccc5o4)cs3)s2)cc1
-3
